These data points were gathered from patent US20210253718A1.

In this section, each of the binders is paired with its reported median fluorescence.
- System tested: T1, FZD4 cysteine-rich domain (CRD), MYC-tagged and GPI-anchored on CHO cells (human, UniProt Q9ULV1 42-167, GPI anchor)
- T1 construct: also called FZD4 CRD; CHO-myc-FZDGPI; not shown: MYC tag and GPI anchor signal
- T1 sequence: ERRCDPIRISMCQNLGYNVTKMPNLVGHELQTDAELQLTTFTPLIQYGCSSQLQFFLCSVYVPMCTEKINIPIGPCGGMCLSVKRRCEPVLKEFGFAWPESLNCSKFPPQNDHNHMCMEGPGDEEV
- Assay: flow cytometry, CHO-CRD cells;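 further: flow cytometry of Fab binding to CHO cells overexpressing a Frizzled CRD, with binding defined as median fluorescence over twice that of CHO cells lacking any Frizzled CRD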
Write no unit; give the number alone.

Study these solved cases before continuing.
# Binder, Readout label, Measured
measured = [
    ("Fab-2909 (Fab, V domains shown, Fab; also called Fv-2909) VH: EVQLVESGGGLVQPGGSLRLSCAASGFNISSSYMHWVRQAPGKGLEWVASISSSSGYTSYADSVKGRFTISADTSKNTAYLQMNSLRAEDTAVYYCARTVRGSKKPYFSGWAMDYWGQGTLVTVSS VL: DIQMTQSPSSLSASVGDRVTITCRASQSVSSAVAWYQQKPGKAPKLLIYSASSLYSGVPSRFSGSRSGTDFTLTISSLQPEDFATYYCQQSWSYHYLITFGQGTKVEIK", "median fluorescence", 4.1),
    ("Fab-2915 (Fab, V domains shown, Fab; also called Fv-2915) VH: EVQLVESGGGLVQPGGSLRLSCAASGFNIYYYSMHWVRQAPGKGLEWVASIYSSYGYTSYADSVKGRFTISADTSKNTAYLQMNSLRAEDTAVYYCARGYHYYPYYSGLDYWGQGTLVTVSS VL: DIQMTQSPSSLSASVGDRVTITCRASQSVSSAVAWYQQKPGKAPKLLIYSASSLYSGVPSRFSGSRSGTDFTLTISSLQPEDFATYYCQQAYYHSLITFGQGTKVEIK", "median fluorescence", 5.99),
    ("Fab-2934 (Fab, V domains shown, Fab; also called Fv-2934) VH: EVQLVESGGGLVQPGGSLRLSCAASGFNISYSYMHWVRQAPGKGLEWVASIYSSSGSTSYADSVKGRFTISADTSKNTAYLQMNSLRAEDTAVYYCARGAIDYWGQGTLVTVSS VL: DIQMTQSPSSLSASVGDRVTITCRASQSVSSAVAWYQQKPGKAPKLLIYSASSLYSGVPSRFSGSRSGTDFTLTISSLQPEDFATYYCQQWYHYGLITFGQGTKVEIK", "median fluorescence", 4.78),
]

Please look at the following binder next.
Form field: reported median fluorescence of Fab-2931 (Fab, V domains shown, Fab; also called Fv-2931) VH: EVQLVESGGGLVQPGGSLRLSCAASGFNLSYSSMHWVRQAPGKGLEWVAYISPYSGSTYYADSVKGRFTISADTSKNTAYLQMNSLRAEDTAVYYCARGSYWYVGGGWWVSGHGGMDYWGQGTLVTVSS VL: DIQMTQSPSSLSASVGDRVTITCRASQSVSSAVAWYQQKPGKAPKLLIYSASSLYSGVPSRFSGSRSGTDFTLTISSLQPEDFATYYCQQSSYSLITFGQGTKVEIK
3.65
